Where these numbers come from: BindingDB's records for patent US10836741

target: Ubiquitin carboxyl-terminal hydrolase 7 [208-1102] (Human)
Sequence (Q93009 208-1102): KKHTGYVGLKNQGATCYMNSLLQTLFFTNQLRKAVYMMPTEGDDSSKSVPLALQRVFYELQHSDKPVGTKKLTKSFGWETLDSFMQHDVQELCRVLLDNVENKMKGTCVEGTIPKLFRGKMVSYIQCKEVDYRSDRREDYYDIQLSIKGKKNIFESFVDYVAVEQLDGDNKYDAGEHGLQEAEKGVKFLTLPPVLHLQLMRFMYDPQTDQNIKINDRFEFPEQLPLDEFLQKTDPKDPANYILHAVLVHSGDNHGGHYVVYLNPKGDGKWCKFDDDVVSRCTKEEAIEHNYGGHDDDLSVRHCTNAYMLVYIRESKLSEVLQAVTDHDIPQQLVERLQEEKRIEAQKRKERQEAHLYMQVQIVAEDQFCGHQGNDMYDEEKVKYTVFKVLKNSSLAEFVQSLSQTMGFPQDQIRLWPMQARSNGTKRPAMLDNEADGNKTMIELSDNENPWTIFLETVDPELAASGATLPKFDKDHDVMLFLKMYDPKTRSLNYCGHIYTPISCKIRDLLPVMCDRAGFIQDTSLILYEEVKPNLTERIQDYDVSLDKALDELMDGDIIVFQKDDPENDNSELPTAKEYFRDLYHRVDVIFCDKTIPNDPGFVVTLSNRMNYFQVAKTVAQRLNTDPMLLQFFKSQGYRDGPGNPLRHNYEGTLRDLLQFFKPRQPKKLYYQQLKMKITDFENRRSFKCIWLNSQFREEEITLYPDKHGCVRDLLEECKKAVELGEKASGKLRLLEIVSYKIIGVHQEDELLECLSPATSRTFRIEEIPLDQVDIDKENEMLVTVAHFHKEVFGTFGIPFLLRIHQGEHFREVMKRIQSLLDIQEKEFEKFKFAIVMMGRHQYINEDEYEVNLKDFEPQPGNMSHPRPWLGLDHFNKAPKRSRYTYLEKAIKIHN
ENDPOINT_LABEL: IC50

Quickly give me recorded IC50 for COc1cccc2c(=O)n(CC3(O)CCN(C(=O)CC(C)c4ccccc4)CC3)cnc12 (stereo unspecified)
< 200 nM
